# Test system: T. gondii β-gal tachyzoites
# assay.procedure: Primary screening: T. gondii β-gal proliferation in HFF monolayers at 0.1 and 1 µM (CPRG readout)
# Format: cell-based, Toxoplasma gondii
# assay.context: 0.1 µM, tachyzoites cultured in HFF, 72 h, relative to DMSO control
# strict inequality: T. gondii β-gal Growth (%) < 90% yields Fulfilled, everything else yields Not fulfilled

Inquiry: Please indicate whether the reported T. gondii β-gal Growth (%) of C#CCn1cnc2c(N)ncnc21.C#CCn1cnc2c(N)ncnc21 [Compound 18] is strictly below 90%.
Reply text: Not fulfilled

Inquiry: Does C#CCOC(=O)Cc1ccc([S+]2[Ru-]3[S+](Cc4ccc(C(C)(C)C)cc4)[Ru-]2[S+]3Cc2ccc(C(C)(C)C)cc2)cc1.Cc1ccc(C(C)C)cc1.Cc1ccc(C(C)C)cc1.[Cl-] (stereo not shown) [Compound 7] have T. gondii β-gal Growth (%) strictly under 90%?
Reply text: Fulfilled

Inquiry: Here's an entry: CC(C)(C)c1ccc(C[S]2[Ru]3[S](Cc4ccc(C(C)(C)C)cc4)[Ru+]2[S]3c2ccc(-n3cc(-c4ccccn4)nn3)cc2)cc1.Cc1ccc(C(C)C)cc1.Cc1ccc(C(C)C)cc1.[Cl-] [Compound 39] . Is its T. gondii β-gal Growth (%) below 90%?
Reply text: Fulfilled

Inquiry: Below 90% on T. gondii β-gal Growth (%)? Entry CC(C)(C)c1ccc(C[S]2[Ru]3[S](Cc4ccc(C(C)(C)C)cc4)[Ru+]2[S]3c2ccc(-n3cc(Cn4ccc(N)nc4=O)nn3)cc2)cc1.Cc1ccc(C(C)C)cc1.Cc1ccc(C(C)C)cc1.[Cl-] [Compound 25]
Reply text: Fulfilled

Inquiry: Decide: T. gondii β-gal Growth (%) of CC(C)(C)c1ccc(C[S]2[Ru]3[S](Cc4ccc(C(C)(C)C)cc4)[Ru+]2[S]3c2ccc(-n3cc(Cn4cnc5c(N)ncnc54)nn3)cc2)cc1.Cc1ccc(C(C)C)cc1.Cc1ccc(C(C)C)cc1.[Cl-] [Compound 26] strictly below 90%?
Reply text: Not fulfilled

Inquiry: Strictly below 90% in T. gondii β-gal Growth (%)? CC(C)(C)c1ccc(C[S]2[Ru]3[S](Cc4ccc(C(C)(C)C)cc4)[Ru+]2[S]3c2ccc(-n3cc(-c4ccccc4)nn3)cc2)cc1.Cc1ccc(C(C)C)cc1.Cc1ccc(C(C)C)cc1.[Cl-] [Compound 37]
Reply text: Fulfilled

Inquiry: Identify whether the compound CC(C)(C)c1ccc(C[S]2[Ru]3[S](Cc4ccc(C(C)(C)C)cc4)[Ru+]2[S]3c2ccccc2Cn2cc(Cn3cnc4c(N)ncnc43)nn2)cc1.Cc1ccc(C(C)C)cc1.Cc1ccc(C(C)C)cc1.[Cl-] [Compound 22] records T. gondii β-gal Growth (%) below 90%.
Reply text: Fulfilled

Inquiry: Below 90% on T. gondii β-gal Growth (%)? Entry C#CCn1ccc(=O)[nH]c1=O.C#CCn1ccc(=O)[nH]c1=O [Compound 15]
Reply text: Not fulfilled

Inquiry: Check if T. gondii β-gal Growth (%) falls below 90% for [N-]=[N+]=NCCn1cnc2c(N)ncnc21 [Compound 32] .
Reply text: Not fulfilled

Inquiry: A record lists Cc1ccc(C(C)C)cc1.Cc1ccc(C(C)C)cc1.Cc1cn(Cc2cn(Cc3ccccc3[S+]3[Ru-]4[S+](Cc5ccc(C(C)(C)C)cc5)[Ru-]3[S+]4Cc3ccc(C(C)(C)C)cc3)nn2)c(=O)[nH]c1=O.[Cl-] (stereo not shown) [Compound 20] . Is its T. gondii β-gal Growth (%) below 90%?
Reply text: Not fulfilled

Inquiry: Given the entry C#CCCCC(=O)Nc1ccc([S+]2[Ru-]3[S+](Cc4ccc(C(C)(C)C)cc4)[Ru-]2[S+]3Cc2ccc(C(C)(C)C)cc2)cc1.Cc1ccc(C(C)C)cc1.Cc1ccc(C(C)C)cc1.[Cl-] (stereo not shown) [Compound 5] , would its reported T. gondii β-gal Growth (%) be below 90%?
Reply text: Fulfilled

Inquiry: Lab note: confirm whether the reported T. gondii β-gal Growth (%) for this compound is below 90%, equality not counting. compound: [N-]=[N+]=NCc1cc(=O)[nH]c(=O)[nH]1 [Compound 27, 6-(azidomethyl)uracil]
Reply text: Not fulfilled

Inquiry: Identify whether the compound C#CCn1ccc(N)nc1=O.C#CCn1ccc(N)nc1=O [Compound 17] records T. gondii β-gal Growth (%) below 90%.
Reply text: Not fulfilled

Inquiry: Strictly below 90% in T. gondii β-gal Growth (%)? CC(C)(C)c1ccc(C[S+]2[Ru-]3[S+](Cc4ccc(C(C)(C)C)cc4)[Ru-]2[S+]3c2ccc(CC(=O)OCCn3cnc4c(N)ncnc43)cc2)cc1.Cc1ccc(C(C)C)cc1.Cc1ccc(C(C)C)cc1.[Cl-] (stereo not shown) [Compound 14]
Reply text: Fulfilled

Inquiry: Check if T. gondii β-gal Growth (%) falls below 90% for CC(C)(C)c1ccc(C[S]2[Ru]3[S](Cc4ccc(C(C)(C)C)cc4)[Ru+]2[S]3c2ccc(-n3cc(CO)nn3)cc2)cc1.Cc1ccc(C(C)C)cc1.Cc1ccc(C(C)C)cc1.[Cl-] [Compound 38] .
Reply text: Fulfilled

Inquiry: Does this compound meet the criterion T. gondii β-gal Growth (%) < 90%? CC(C)(C)c1ccc(C[S]2[Ru]3[S](Cc4ccc(C(C)(C)C)cc4)[Ru+]2[S]3c2ccccc2Cn2cc(-c3ccc(CO)cc3)nn2)cc1.Cc1ccc(C(C)C)cc1.Cc1ccc(C(C)C)cc1.[Cl-] [Compound 35]
Reply text: Fulfilled

Inquiry: Problem: For the compound Nc1ncnc2c1ncn2CCO [Compound 14A, 9-(2-hydroxyethyl)adenine] , is T. gondii β-gal Growth (%) under 90%?
Reply text: Not fulfilled

Inquiry: # TODO verify T. gondii β-gal Growth (%) < 90% strictly for this compound: C#CCn1cc(C)c(=O)[nH]c1=O.C#CCn1cc(C)c(=O)[nH]c1=O [Compound 16]
Reply text: Not fulfilled

Inquiry: For this compound, is T. gondii β-gal Growth (%) lower than 90%? CNc1cn(CCn2cnc3c(N)ncnc32)nn1 [Compound 33]
Reply text: Not fulfilled
